target: EP2 prostanoid receptor (Homo sapiens); construct: host or cells: CHO-K1; assay: GloSensor cAMP assay in CHO-K1 cells co-transfected with the EP2 receptor; assay type: cell-based; conditions: EC50 (μM) 3.0 hr, 3.0 hr incubation time
EC50 for assorted molecules

Solved entries (count: 3):
CCCCCCCCCCCCOC(=O)COc1cccc2c1C[C@H]1C[C@@H](O)[C@H](CC[C@@H](O)CCCCC)[C@H]1C2 : 4.07 µM
CCCCCCCCOC(=O)COc1cccc2c1C[C@H]1C[C@@H](O)[C@H](CC[C@@H](O)CCCCC)[C@H]1C2 : 1.42 µM
CCCCC[C@H](O)CC[C@@H]1[C@H]2Cc3cccc(OCC(=O)O)c3C[C@H]2C[C@H]1O : 0.16 µM

For CCCCC[C@H](O)CC[C@@H]1[C@H]2Cc3cccc(OCC(=O)OCC)c3C[C@H]2C[C@H]1O , what is its reported EC50?
1.81 µM

* * *

assay: in vivo; settings: beagle, dog, 18 ug/kg
measurement_type: Cmax (ng/mL)
Write it as a number; the unit ng/mL goes unstated.

Look up Cmax for this compound: CCCCC[C@H](O)CC[C@@H]1[C@H]2Cc3cccc(OCC(=O)O)c3C[C@H]2C[C@H]1O
5.9

* * *

target: EP2 prostanoid receptor (Homo sapiens); construct: host or cells: CHO-K1; assay: GloSensor cAMP assay in CHO-K1 cells co-transfected with the EP2 receptor; type: cell-based; settings: EC50 (μM) 5.0 hr, 5.0 hr incubation time
# EC50 values compiled below
The answer is to be given in µM; state only the numeric part.

CCCCCCCCCCCCOC(=O)COc1cccc2c1C[C@H]1C[C@@H](O)[C@H](CC[C@@H](O)CCCCC)[C@H]1C2 : 2.94
CCCCCCCCOC(=O)COc1cccc2c1C[C@H]1C[C@@H](O)[C@H](CC[C@@H](O)CCCCC)[C@H]1C2 : 1.4
CCCCC[C@H](O)CC[C@@H]1[C@H]2Cc3cccc(OCC(=O)O)c3C[C@H]2C[C@H]1O : 0.26

Consider now this further compound.
# query: EC50 of entry CCCCC[C@H](O)CC[C@@H]1[C@H]2Cc3cccc(OCC(=O)OCC)c3C[C@H]2C[C@H]1O
1.91

* * *

tested on: CHO-K1 cells; test: CHO-K1 cell proliferation assay (Presto Blue); conditions: Table 9, unformulated alkyl esters, (0.195 μM-25 μM), 48 hour incubation
measurement_type: Effect on cell proliferation, CHO-K1 Cells: detectable cell inhibition

Find the measured Effect on cell proliferation, CHO-K1 Cells: detectable cell inhibition: item CCCCCCCCOC(=O)COc1cccc2c1C[C@H]1C[C@@H](O)[C@H](CC[C@@H](O)CCCCC)[C@H]1C2 , target or system CHO-K1 cells.
25 µM

* * *

Target: EP2 prostanoid receptor (Homo sapiens, UniProt P43116)
Construct: host or cells: CHO-K1
Sequence (P43116 whole entry): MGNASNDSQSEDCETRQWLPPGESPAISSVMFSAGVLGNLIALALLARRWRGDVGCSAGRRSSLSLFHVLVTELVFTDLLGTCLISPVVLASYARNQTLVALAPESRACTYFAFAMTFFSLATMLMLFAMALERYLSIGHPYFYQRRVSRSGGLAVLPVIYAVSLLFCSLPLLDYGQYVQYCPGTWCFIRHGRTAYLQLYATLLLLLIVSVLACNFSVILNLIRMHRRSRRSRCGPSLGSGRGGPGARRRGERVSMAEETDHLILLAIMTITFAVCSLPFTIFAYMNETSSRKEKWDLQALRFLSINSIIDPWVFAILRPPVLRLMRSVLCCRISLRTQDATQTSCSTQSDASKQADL
Assay: GloSensor cAMP assay in CHO-K1 cells co-transfected with the EP2 receptor
Assay type: cell-based
Conditions: EC50 (μM) 2.0 hr, 2.0 hr incubation time
Procedure: cAMP is a second messenger involved in signal transduction of G-protein coupled receptors (GPCRs) acting through Gα-s and Gα-i proteins. […] Cell number was determined using a hemacytometer. […] Following incubation, cells were treated and analyzed. […] Cell number was determined using a hemacytometer. […] A first pre-read measurement was taken using a microplate reader (MicroLumat Plus). Plates were incubated for an additional 10 minutes at room temperature, followed by a second pre-read measurement. […]
measurement_type: EC50 (µM)
Entry rule: numbers only, all in µM.

Examples with answers:
CCCCCCCCOC(=O)COc1cccc2c1C[C@H]1C[C@@H](O)[C@H](CC[C@@H](O)CCCCC)[C@H]1C2 : 1.69
CCCCCCCCCCCCOC(=O)COc1cccc2c1C[C@H]1C[C@@H](O)[C@H](CC[C@@H](O)CCCCC)[C@H]1C2 : 4.54
CCCCC[C@H](O)CC[C@@H]1[C@H]2Cc3cccc(OCC(=O)O)c3C[C@H]2C[C@H]1O : 0.15

Please find the next compound below.
# returns recorded EC50 (system: EP2 prostanoid receptor (Homo sapiens, UniProt P43116)) for CCCCC[C@H](O)CC[C@@H]1[C@H]2Cc3cccc(OCC(=O)OCC)c3C[C@H]2C[C@H]1O
1.75

* * *

assay: Treprostinil pharmacokinetics in anaesthetised, ventilated rats after nebulized dosing; assay type: in vivo, rat; settings: male, Sprague Dawley, rat, inhaled or intranasal, 6 ug/kg, plasma treprostinil, nebulized, estimated pulmonary dose of 6 μg/kg
measurement_type: Cmax (ng/mL)
Your answer should be a plain number; it is taken to be in ng/mL.

Looking for the measured Cmax of CCCCC[C@H](O)CC[C@@H]1[C@H]2Cc3cccc(OCC(=O)O)c3C[C@H]2C[C@H]1O , can you help?
3.37

* * *

target: EP2 prostanoid receptor (Homo sapiens, UniProt P43116); construct: host or cells: CHO-K1; assay: GloSensor cAMP assay in CHO-K1 cells co-transfected with the EP2 receptor; assay type: cell-based; details: EC50 (μM) 4.0 hr, 4.0 hr incubation time
Measured EC50 values are reported for all entries that follow.
Please give a number only; it is taken to be in µM.

In the examples that follow, each entry is paired with its recorded EC50.
CCCCCCCCOC(=O)COc1cccc2c1C[C@H]1C[C@@H](O)[C@H](CC[C@@H](O)CCCCC)[C@H]1C2 : 1.53
CCCCC[C@H](O)CC[C@@H]1[C@H]2Cc3cccc(OCC(=O)O)c3C[C@H]2C[C@H]1O : 0.19
CCCCC[C@H](O)CC[C@@H]1[C@H]2Cc3cccc(OCC(=O)OCC)c3C[C@H]2C[C@H]1O : 1.88

Attention now turns to another entry.
Reported EC50 for EP2 prostanoid receptor (Homo sapiens, UniProt P43116), given CCCCCCCCCCCCOC(=O)COc1cccc2c1C[C@H]1C[C@@H](O)[C@H](CC[C@@H](O)CCCCC)[C@H]1C2 ?
3.13

* * *

test: in vivo; details: both, beagle, dog, inhaled or intranasal, 5 ug/kg
measurement_type: Cmax (ng/mL)
Give the number; ng/mL is assumed, so skip it.

Recorded Cmax of CCCCC[C@H](O)CC[C@@H]1[C@H]2Cc3cccc(OCC(=O)O)c3C[C@H]2C[C@H]1O , please.
2.7

* * *

target: EP2 prostanoid receptor (Homo sapiens); construct: host or cells: CHO-K1; experiment: GloSensor cAMP assay in CHO-K1 cells co-transfected with the EP2 receptor; assay type: cell-based; settings: 6.0 hr incubation time; read-out: EC50 (μM) 6.0 hr
measurement_type: EC50 (µM)
Kindly provide the numeric value in µM only, without the unit symbol.

Recorded EC50 for CCCCC[C@H](O)CC[C@@H]1[C@H]2Cc3cccc(OCC(=O)O)c3C[C@H]2C[C@H]1O , please?
0.29

GET /values?readout=EC50&item= CCCCCCCCCCCCOC(=O)COc1cccc2c1C[C@H]1C[C@@H](O)[C@H](CC[C@@H](O)CCCCC)[C@H]1C2
3.25

Which EC50 value is on record for CCCCCCCCOC(=O)COc1cccc2c1C[C@H]1C[C@@H](O)[C@H](CC[C@@H](O)CCCCC)[C@H]1C2 ?
1.4

What does the data say about its EC50? Entry: CCCCC[C@H](O)CC[C@@H]1[C@H]2Cc3cccc(OCC(=O)OCC)c3C[C@H]2C[C@H]1O
1.68

* * *

assay: physchem; conditions: organic solvent or mixture, thermodynamic from solid, Solubility in HFA-134a with added ethanol
measurement_type: solubility at 24 h

CCCCC[C@H](O)CC[C@@H]1[C@H]2Cc3cccc(OCC(=O)OC(CCCC)CCCC)c3C[C@H]2C[C@H]1O : < 1000 µg/mL

Now consider a different molecule.
Quick one: solubility at 24 h for CCCCCCCCCCCCOC(=O)COc1cccc2c1C[C@H]1C[C@@H](O)[C@H](CC[C@@H](O)CCCCC)[C@H]1C2 ?
> 1000 µg/mL

* * *

experiment: Treprostinil pharmacokinetics in anaesthetised, ventilated rats after nebulized dosing; type: in vivo, rat; conditions: male, Sprague Dawley, rat, inhaled or intranasal, 6 ug/kg, plasma treprostinil, nebulized, estimated pulmonary dose of 6 μg/kg
measurement_type: AUC(0-t) (ng·h/mL)
# unit: ng·h/mL | format: bare number

Fill in: AUC(0-t) of CCCCC[C@H](O)CC[C@@H]1[C@H]2Cc3cccc(OCC(=O)O)c3C[C@H]2C[C@H]1O [Treprostinil] is ___
2.13

* * *

biological target: EP2 prostanoid receptor (Homo sapiens); construct: host or cells: CHO-K1; test: GloSensor cAMP assay in CHO-K1 cells co-transfected with the EP2 receptor; type: cell-based; conditions: EC50 (μM) 7.0 hr, 7.0 hr incubation time
measurement_type: EC50 (µM)
State just the number; it will be interpreted in µM.

Worked set:
CCCCC[C@H](O)CC[C@@H]1[C@H]2Cc3cccc(OCC(=O)O)c3C[C@H]2C[C@H]1O : 0.46
CCCCC[C@H](O)CC[C@@H]1[C@H]2Cc3cccc(OCC(=O)OCC)c3C[C@H]2C[C@H]1O : 1.71
CCCCCCCCCCCCOC(=O)COc1cccc2c1C[C@H]1C[C@@H](O)[C@H](CC[C@@H](O)CCCCC)[C@H]1C2 : 3.17

Please look at the following compound next.
If you can, please state the reported EC50 value of CCCCCCCCOC(=O)COc1cccc2c1C[C@H]1C[C@@H](O)[C@H](CC[C@@H](O)CCCCC)[C@H]1C2 .
1.34

Provenance of the data: patent US20160318844A1
